I'd appreciate it if you could supply IC50 values for the items below.
# assay target: CYP2C19 (Homo sapiens, UniProt P33261)
# Sequence (P33261 whole entry): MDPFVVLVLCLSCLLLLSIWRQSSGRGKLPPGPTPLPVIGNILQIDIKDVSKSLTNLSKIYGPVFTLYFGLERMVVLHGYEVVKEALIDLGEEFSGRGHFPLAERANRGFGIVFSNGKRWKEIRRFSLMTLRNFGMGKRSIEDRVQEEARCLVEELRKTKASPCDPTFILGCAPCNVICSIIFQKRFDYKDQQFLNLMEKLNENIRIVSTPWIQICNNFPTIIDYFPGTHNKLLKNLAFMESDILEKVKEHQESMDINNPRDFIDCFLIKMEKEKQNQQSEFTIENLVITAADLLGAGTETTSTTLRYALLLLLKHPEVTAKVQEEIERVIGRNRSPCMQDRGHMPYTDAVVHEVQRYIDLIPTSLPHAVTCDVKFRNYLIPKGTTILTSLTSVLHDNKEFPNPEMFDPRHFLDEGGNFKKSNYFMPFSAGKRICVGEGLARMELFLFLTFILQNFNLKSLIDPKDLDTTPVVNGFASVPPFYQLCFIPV

The reported value for CCCNc1ncnc2[nH]cc(C(=O)c3ccc(Nc4cncc(OC)c4)nc3F)c12 in terms of IC50 is > 10 µM

Measured IC50, COc1ccc(Nc2ccc(C(=O)c3c[nH]c4ncnc(NCC5CCCO5)c34)c(F)n2)cn1 (stereo not drawn) : 5 to 10 µM

Record summary for Clc1cnc2[nH]cc(Cc3cnc(NC4CCCCC4)nc3)c2c1 : reported IC50 = > 10 µM

IC50 reading for CCCCNc1ncnc2[nH]cc(C(=O)c3ccc(Nc4ccc(OC)nc4)nc3F)c12 : > 10 µM

Lab note: Cc1ccc(Nc2ccc(Cc3c[nH]c4ncnc(C5CC5)c34)c(F)n2)cn1 gave IC50 of 5 to 10 µM

Recorded result, COc1cncc(Nc2ccc(C(=O)c3c[nH]c4ncnc(NCC(F)(F)F)c34)c(F)n2)c1 , IC50: > 10 µM

For Fc1ccc(Nc2ncc(Cc3c[nH]c4ncc(Cl)cc34)cn2)cc1 the compound record lists IC50 as > 10 µM

The compound listed as Cc1ccc(Nc2ccc(C(=O)c3c[nH]c4ncnc(C5CC5)c34)c(F)n2)cn1 shows IC50 equal to > 10 µM

So for O=C(c1ccc(NC2CCC(F)(F)CC2)nc1Cl)c1c[nH]c2ncnc(NC3CC3)c12 , the logged IC50 turned out to be > 10 µM

Record summary for CCOc1ncnc2[nH]cc(Cc3ccc(Nc4ccc(OC)nc4)nc3F)c12 : reported IC50 = < 5 µM

Memo: CCc1ccc(Nc2ccc(C(=O)c3c[nH]c4ncnc(NCC(C)(C)O)c34)c(F)n2)cn1 , reported IC50: > 10 µM

Reported IC50 for CCOc1ncnc2[nH]cc(Cc3ccc(Nc4ccc(C)nc4)nc3F)c12 was > 10 µM

// IC50 lookup, compound = COc1ccc(Nc2ccc(C(=O)c3c[nH]c4ncnc(C5CC5)c34)c(F)n2)cn1 , result: 5 to 10 µM

Short answer for CCc1ccc(Nc2ccc(Cc3c[nH]c4ncnc(OCCOC)c34)c(F)n2)cn1 : IC50 was > 10 µM

Data point: Fc1nc(Nc2ccc(C3CC3)nc2)ccc1Cc1c[nH]c2ncnc(C3CC3)c12 ; IC50 = < 5 µM

Measured IC50, O=C(c1ccc(NC2CCC(F)(F)CC2)nc1)c1c[nH]c2ncnc(NC3CC3)c12 : > 10 µM

Short answer for O=C(c1cnc(NC2CCC(F)(F)CC2)c(F)c1)c1c[nH]c2ncnc(NC3CC3)c12 : IC50 was > 10 µM

Record O=C(c1ccc(NC2CCC(F)(F)CC2)nc1)c1c[nH]c2ncnc(NCC(F)(F)F)c12 . Reported IC50: > 10 µM

Value of IC50 reported for the compound Cc1ccc(Nc2ccc(C(=O)c3c[nH]c4ncnc(NCC5CC5)c34)c(F)n2)cn1 is > 10 µM

IC50 for Fc1nc(Nc2ccc(C3CC3)nc2)ccc1Cc1c[nH]c2ncccc12 is > 10 µM

Entry O=C(c1ccc(NC2CCC(F)(F)CC2)nc1F)c1c[nH]c2ncnc(NC3CC3)c12 — recorded IC50 = > 10 µM
